Test system: SEM cells
Test: cell viability relative to DMSO control; higher = less cytotoxic
Settings: HPLM + 10% dialyzed FBS; 48 h; 46.1 µM
readout kind: cell viability
State the value with its unit after it.

Exam item: Which cell viability value is on record for O=C(O)Cc1cccc(OCCCN(Cc2cccc(C(F)(F)F)c2Cl)CC(c2ccccc2)c2ccccc2)c1 ?
Marked response: 94.5%

Exam item: Which cell viability value is on record for CCC(C1CCC(C)C(O1)C(C)C(O)C(C)C(=O)C(CC)C2OC\3(O[C@]4(CC[C@@](C)(O4)C5CC[C@@](O)(CC)C(C)O5)C(O)\C=C3)C(C)CC2C)C([O-])=O (some centres undefined) ?
Marked response: 21.3%

Exam item: Which cell viability value is on record for O=C1N\C=N/C2=C1C=N[NH]2 ?
Marked response: 41.9%

Exam item: Which cell viability value is on record for CC(C)(Sc1ccc(CCN(CCCCC2CCCCC2)C(=O)NC2CCCCC2)cc1)C(=O)O ?
Marked response: 98.9%

Exam item: Which cell viability value is on record for CC(S)C(=O)NCC(=O)O (centres undefined) ?
Marked response: 95%

Exam item: Which cell viability value is on record for COc1cc(Cl)cn2c(-c3cccc(NC4CNC4)n3)cnc12 ?
Marked response: 96.8%

Exam item: Which cell viability value is on record for C[C@]\12CCC(=O)\C=C1[C@@H]3C[C@@H]3[C@@H]4[C@@H]2CC[C@@]5(C)[C@H]4[C@@H]6C[C@@H]6[C@@]57CCC(=O)O7 ?
Marked response: 104%

Exam item: Which cell viability value is on record for CCc1cc(-c2n[nH]c(C)c2-c2ccc3c(c2)OCCO3)c(O)cc1O ?
Marked response: 36.2%

Exam item: Which cell viability value is on record for Nc1ccc([S+](=O)([O-])Nc2ncccn2)cc1 ?
Marked response: 112%

---

Tested on: NOMO1
Assay: cell viability relative to DMSO control; higher = less cytotoxic
Conditions: HPLM + 10% dialyzed FBS; 48 h; 0.00702 µM
readout kind: cell viability (%)
// return numeric value only (unit: %, not printed)

Exam item: Which cell viability value is on record for COC(=O)[C@H](c1ccccc1Cl)N1CCc2sccc2C1 ?
Marked response: 127

Exam item: Which cell viability value is on record for OCCN(CCO)c1nc(N2CCCCC2)c2nc(N(CCO)CCO)nc(N3CCCCC3)c2n1 ?
Marked response: 104

Exam item: Which cell viability value is on record for CCC(C1CCC(C)C(O1)C(C)C(O)C(C)C(=O)C(CC)C2OC\3(O[C@]4(CC[C@@](C)(O4)C5CC[C@@](O)(CC)C(C)O5)C(O)\C=C3)C(C)CC2C)C([O-])=O (some centres undefined) ?
Marked response: 101

Exam item: Which cell viability value is on record for OC[C@H]1OC(OC2=CC3=C(C(=C2)O)C(=O)\C(=C/O3)C4=CC=C(O)C=C4)[C@H](O)[C@@H](O)[C@@H]1O (some centres undefined) ?
Marked response: 79.6

Exam item: Which cell viability value is on record for COC(=O)Nc1nc2ccc([S+]([O-])c3ccccc3)cc2[nH]1 (centres undefined) ?
Marked response: 119

Exam item: Which cell viability value is on record for CCOC(=O)O[C@]1(C(=O)OCCl)CC[C@H]2[C@@H]3CCC4=CC(=O)C=C[C@]4(C)[C@H]3[C@@H](O)C[C@@]21C ?
Marked response: 103

Exam item: Which cell viability value is on record for CC(C)[N+]1(C)C2CCC1CC(OC(=O)C(CO)c1ccccc1)C2.O.[Br-] (centres undefined) ?
Marked response: 120

Exam item: Which cell viability value is on record for CCCCc1nc2cc(/C=C/C(=O)NO)ccc2n1CCN(CC)CC ?
Marked response: 94.2

Exam item: Which cell viability value is on record for CC(C)(Sc1ccc(CCN(CCCCC2CCCCC2)C(=O)NC2CCCCC2)cc1)C(=O)O ?
Marked response: 101

Exam item: Which cell viability value is on record for COc1cc(Cl)cn2c(-c3cccc(NC4CNC4)n3)cnc12 ?
Marked response: 118

Exam item: Which cell viability value is on record for Cc1ccc(/C=N/NC(=O)c2ccccc2Oc2ccccc2)o1 ?
Marked response: 104

Exam item: Which cell viability value is on record for Nc1ccc([S+](=O)([O-])Nc2ncccn2)cc1 ?
Marked response: 130

Exam item: Which cell viability value is on record for CN1CCC(CC1)=C2C3=C(C=CC=C3)\C=C/C4=C2C=CC=C4 ?
Marked response: 113

Exam item: Which cell viability value is on record for N#CC[C@H](C1CCCC1)n1cc(-c2ncnc3[nH]ccc23)cn1 ?
Marked response: 103

Exam item: Which cell viability value is on record for NC(CO)C(=O)NNCc1ccc(O)c(O)c1O (centres undefined) ?
Marked response: 106

Exam item: Which cell viability value is on record for CC(C)(C)OC(=O)Nc1ccc(-c2cc(C(=O)NCCCCCCC(=O)NO)no2)cc1 ?
Marked response: 84.4

Exam item: Which cell viability value is on record for O=C(NCc1ccccc1)c1csc(Nc2ccncn2)n1 ?
Marked response: 101

Exam item: Which cell viability value is on record for CN(C)CCc1c[nH]c2ccc(C[S+](=O)([O-])N3CCCC3)cc12 ?
Marked response: 104

Exam item: Which cell viability value is on record for CC(C)Cn1cnc2c(N)nc3ccccc3c21 ?
Marked response: 120
